src = paper PMC10093973

- Tested on: T1, NUCB1 ΔN (Homo sapiens, UniProt Q02818 239-461)
- T1 sequence: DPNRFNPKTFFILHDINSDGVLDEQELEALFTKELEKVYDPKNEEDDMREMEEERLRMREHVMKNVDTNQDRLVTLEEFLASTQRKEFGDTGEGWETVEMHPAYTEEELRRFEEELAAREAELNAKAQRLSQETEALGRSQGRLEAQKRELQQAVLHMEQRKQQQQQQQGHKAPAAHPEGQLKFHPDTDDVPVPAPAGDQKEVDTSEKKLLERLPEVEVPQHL
- Assay info: SPR; SPR: 50 mM Tris-HCl pH 8.0, 200 mM NaCl, 0.1% Tween-20, with or without 2 mM CaCl2, 25 °C; 5'-biotinylated RNA immobilized, NUCB1 as analyte, 1:1 model
- Stated conditions: protein: recombinant; tags: N-terminal His6; label: 5'-biotin
Experimental endpoint: Kd

Q: Query: Kd; subject: GUGGUCAGUCGAGUGGUAACACUGUCUGGUAACGAUGU (ssRNA) [miR-200a-3p]
A: 0.6 nM
